Biological target: human PAD4 (Homo sapiens, UniProt Q9UM07)
Construct: human PAD4 (NM_012387), A2P663, was PCR amplified; His-SUMO (N, cleaved yes)
Sequence (Q9UM07 2-663): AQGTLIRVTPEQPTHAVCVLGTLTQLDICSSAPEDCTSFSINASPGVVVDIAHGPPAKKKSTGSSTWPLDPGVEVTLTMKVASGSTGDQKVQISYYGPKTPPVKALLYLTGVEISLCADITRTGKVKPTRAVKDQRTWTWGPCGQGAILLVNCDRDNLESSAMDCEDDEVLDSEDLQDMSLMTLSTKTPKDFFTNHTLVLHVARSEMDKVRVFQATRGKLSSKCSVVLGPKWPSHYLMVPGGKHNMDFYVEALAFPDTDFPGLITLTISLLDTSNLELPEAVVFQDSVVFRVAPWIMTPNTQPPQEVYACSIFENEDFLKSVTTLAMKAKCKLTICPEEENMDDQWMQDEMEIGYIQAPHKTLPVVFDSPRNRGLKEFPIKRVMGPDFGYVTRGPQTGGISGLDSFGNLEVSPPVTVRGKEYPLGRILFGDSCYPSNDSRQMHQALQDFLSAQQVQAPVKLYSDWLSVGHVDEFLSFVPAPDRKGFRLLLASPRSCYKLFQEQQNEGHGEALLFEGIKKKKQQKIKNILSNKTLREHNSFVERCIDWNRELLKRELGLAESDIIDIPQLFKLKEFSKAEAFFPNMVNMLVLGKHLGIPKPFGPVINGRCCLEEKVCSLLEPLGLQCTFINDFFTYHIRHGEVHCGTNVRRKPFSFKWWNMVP
Assay: In vitro PAD4 BAEE biochemical assay
Details: human PAD4, BAEE substrate; 5 nM PAD4, 2 mM calcium chloride, 3 mM BAEE; geometric mean of multiple experiments
pIC50: −log10 of the molar value.
compounds and their reported pIC50

# structure, pIC50
records = [
    ("COc1cc(C(=O)N2[C@H]3CC[C@@H]2[C@H](N)C3)cc2nc(-c3cc4ccc(C5CCN(C(=O)C(C)(C)C)CC5)nc4n3CC3CC3)c(C)n12", 6.34),
    ("COc1cc(C(=O)N2[C@H]3CC[C@@H]2[C@H](N)C3)cc2nc(-c3cc4ccc([C@@H](C)NC(=O)N5CCN(C)CC5)nc4n3CC3CC3)c(C)n12", 7.20),
    ("COc1cc(C(=O)N2[C@H]3CC[C@@H]2[C@H](N)C3)cc2nc(-c3cc4ccc([C@@H](C)NC(C)=O)nc4n3CC3CC3)c(C)n12", 7.07),
    ("COc1cc(C(=O)N2[C@H]3CC[C@@H]2[C@H](N)C3)cc2nc(-c3cc4ccc([C@@H](C)NC(=O)C5(COC(F)(F)F)CC5)nc4n3CC3CC3)c(C)n12", 6.48),
    ("COc1cc(C(=O)N2[C@H]3CC[C@@H]2[C@H](N)C3)cc2nc(-c3cc4ccc(N5CCN(Cc6cccnc6)CCS5(=O)=O)nc4n3CC3CC3)c(C)n12", 7.39),
    ("COc1cc(C(=O)N2[C@H]3CC[C@@H]2[C@H](N)C3)cc2nc(-c3cc4ccc(C(C)(C)NC(=O)C(C)(C)C)nc4n3CC3CC3)c(C)n12", 6.77),
]

* * *

Target: human PAD4 (Homo sapiens, UniProt Q9UM07)
Construct: human PAD4 (NM_012387), A2P663, was PCR amplified; His-SUMO (N, cleaved yes); made in house; host or cells: E. coli BL21(DE3)
Assay: In vitro PAD4 BAEE biochemical assay
Details: human PAD4, BAEE substrate; 5 nM PAD4, 2 mM calcium chloride, 3 mM BAEE; geometric mean of multiple experiments
Source text: The PCR product was ligated into linearized pET-SUMO vector (Invitrogen, Carlsbad, CA), which is part of the Champion™ pET SUMO Protein Expression System. […] The enzymatic activity of human PAD4 was monitored in a biochemical assay in the presence or absence of compounds using the small peptidyl arginine mimic BAEE (Na-Benzoyl-L-arginine ethyl ester hydrochloride) as substrate. […] Levels of ammonia were monitored by using an amine coupling reaction and were indicative of PAD4 enzymatic activity. […]
pIC50: −log10 of the molar value.

# molecule, measured-on, pIC50
rows = [
    ("COc1cc(C(=O)N2[C@H]3CC[C@@H]2[C@H](N)C3)cc2nc(-c3cc4ccc([C@@H](C)Nc5ncccn5)nc4n3CC3CC3)c(C)n12", "human PAD4 (Homo sapiens, UniProt Q9UM07)", 7.14),
    ("CNC(=O)CC(C)(C)c1ccc2cc(-c3nc4cc(C(=O)N5[C@H]6CC[C@@H]5[C@H](N)C6)cc(OC)n4c3C)n(CC3CC3)c2n1", "human PAD4 (Homo sapiens, UniProt Q9UM07)", 7.23),
    ("COc1cc(C(=O)N2CCC[C@@H](N)C2)cc2nc(-c3cc4ccc(C(C)n5cc(C#N)cn5)nc4n3CC3CC3)c(C)n12 (stereo partly drawn)", "human PAD4 (Homo sapiens, UniProt Q9UM07)", 6.27),
    ("COc1cc(C(=O)N2[C@@H]3CC[C@@H](N)[C@H]2CC3)cc2nc(-c3cc4ccc(N(C(F)F)S(C)(=O)=O)nc4n3CC(F)(F)F)c(C)n12", "human PAD4 (Homo sapiens, UniProt Q9UM07)", 6.69),
    ("COc1cc(C(=O)N2[C@H]3CC[C@@H]2[C@H](N)C3)cc2nc(-c3cc4ccc(C(CC(=O)N5CCCC5)C5CC5)nc4n3CC3CC3)c(C)n12 (stereo partly drawn)", "human PAD4 (Homo sapiens, UniProt Q9UM07)", 6.92),
    ("COc1cc(C(=O)N2[C@H]3CC[C@@H]2[C@H](N)C3)cc2nc(-c3cc4ccc([C@@H](C)NC(=O)C5CCC5(F)F)nc4n3CC3CC3)c(C)n12 (stereo partly drawn)", "human PAD4 (Homo sapiens, UniProt Q9UM07)", 7.42),
]

Data provenance is patent US12240862B2.
